- assay.comment: in vitro
- stated.conditions: mouse, microsomes
measure: microsomal CLint at 5 μM (µL/min/mg)

[[record]]
compound_structure_string = "COc1ccc(OC)c(-c2ccc(-c3cn(CCc4ccc(C(=O)N(C)C)cc4)nn3)cn2)c1"
measure_unit = "µL/min/mg"
reported_result = 26.2


====

- assay.comment: Mouse pharmacokinetics studies
- stated.conditions: female, CD-1, mouse, plasma, intravenous, 5 mg/kg
measure: half-life (min)

[[record]]
compound_structure_string = "COc1ccc(OC)c(-c2ccc(-c3cn(CCc4ccc(C(=O)N(C)C)cc4)nn3)cn2)c1"
measure_unit = "min"
reported_result = 36


====

- assay.comment: in vivo
- stated.conditions: female, CD-1, mouse
measure: Vd

[[record]]
compound_structure_string = "COc1ccc(OC)c(-c2ccc(-c3cn(CCc4ccc(C(=O)N(C)C)cc4)nn3)cn2)c1"
reported_result = "0.3 L/kg"


====

- assayed.system: Pks13-TE (Mycobacterium tuberculosis)
- assay.comment: biochemical
- Format: binding
- stated.conditions: IC50 in the TAMRA binding assay
measure: IC50 (nM)

[[record]]
compound_structure_string = "COCC1(CN(C)C(=O)c2ccc(CCn3cc(-c4ccc(-c5cc(OC)ccc5OC)nc4)nn3)cc2)CC1"
reported_result = 500


====

- assay.comment: Metabolic stability in mouse liver microsomes (MLMs)
measure: half-life at 5 μM

[[record]]
compound_structure_string = "COc1ccc(OC)c(-c2ccc(-c3cn(CCc4ccc(C(=O)N(C)C)cc4)nn3)cn2)c1"
reported_result = "26.8 min"


====

- assay.comment: Mouse pharmacokinetics studies
- stated.conditions: female, CD-1, mouse, plasma, po, 25 mg/kg
measure: AUC(0-t) (ng·h/mL)

[[record]]
compound = "COc1ccc(OC)c(-c2ccc(-c3cn(CCc4ccc(C(=O)N(C)C)cc4)nn3)cn2)c1 [X20404]"
measure = "AUC(0-t)"
measure_unit = "ng·h/mL"
reported_result = 3700


====

- Test system: pks13-TetON +ATc (Pks13-hypermorph)
- Assay type: cell-based, Mycobacterium tuberculosis
measure: Hypermorph MIC fold shift (+ATc/WT) (fold)

[[record]]
compound_structure_string = "CNC(=O)c1cc(C(C)C)nc(N2CCC(C(=O)N3CCN(C(=O)c4ccc(-n5nc(C)cc5C)nc4)CC3)CC2)n1"
measure_unit = "fold"
reported_result = 4.8

[[record]]
compound_structure_string = "Cc1cccc2cc(C(=O)N3CCN(C(=O)C4CCN(c5nccc(C(=O)NCc6ccccc6)n5)CC4)CC3)cnc12"
measure_unit = "fold"
reported_result = 5.8

[[record]]
compound_structure_string = "Cc1cc(C(=O)NCc2ccccc2)nc(N2CC(C(=O)N3CCN(C(=O)c4ccc5nc(C)ccc5c4)CC3)C2)n1"
measure_unit = "fold"
reported_result = 3.6

[[record]]
compound_structure_string = "Cc1cc(C(=O)NCc2ccccc2)nc(N2CCC(C(=O)N3CCN(C(=O)c4ccc5nc(C)ccc5c4)CC3)CC2)n1"
measure_unit = "fold"
reported_result = 2.7

[[record]]
compound_structure_string = "COc1ccn2nc(C(=O)N3CCN(C(=O)C4CCN(c5nc(C)cc(C(=O)NCc6ccccc6)n5)CC4)CC3)cc2c1"
measure_unit = "fold"
reported_result = 6.0

[[record]]
compound_structure_string = "COc1ccc(Cl)c(-c2ccc(-c3cn(CCc4ccc(C(=O)N(C)C)cc4)nn3)cn2)c1"
measure_unit = "fold"
reported_result = 3.8

[[record]]
compound_structure_string = "Cc1cc(C(=O)NCc2ccccc2)nc(N2CCC(C(=O)N3CCN(C(=O)c4cnc5c(C)cccc5c4)CC3)CC2)n1"
measure_unit = "fold"
reported_result = 2.6

[[record]]
compound_structure_string = "COc1ccc(OC)c(-c2ccc(-c3cn(CCc4ccc5c(cnn5C)c4)nn3)cn2)c1"
measure_unit = "fold"
reported_result = 1.7

[[record]]
compound_structure_string = "COc1ccc2[nH]c(C(=O)N3CCN(C(=O)C4CCN(c5nc(C)cc(C(=O)NCc6ccccc6)n5)CC4)CC3)cc2c1OC"
measure_unit = "fold"
reported_result = 2.5

[[record]]
compound_structure_string = "Cc1cc(C(=O)NCc2ccccc2)nc(N2CCC(C(=O)N3CCN(C(=O)c4cc5c(Cl)cccn5n4)CC3)CC2)n1"
measure_unit = "fold"
reported_result = 3.7

[[record]]
compound_structure_string = "Cc1cc(C(=O)NCc2ccccc2)nc(N2CCC(C(=O)N3CCN(C(=O)c4ccc(-n5nc(C)cc5C)nc4)CC3)CC2)n1"
measure_unit = "fold"
reported_result = 3.7

[[record]]
compound_structure_string = "Cc1cccc(-c2ccc(-c3cn(CCc4ccc(C(=O)N(C)C)cc4)nn3)cn2)c1C"
measure_unit = "fold"
reported_result = 17

[[record]]
compound_structure_string = "COc1ccc(OC)c(-c2ccc(-c3cn(CCc4ccc(S(=O)(=O)N(C)C)cc4)nn3)cn2)c1"
measure_unit = "fold"
reported_result = 2.8

[[record]]
compound_structure_string = "COc1ccc(OC)c(-c2ccc(-c3cn(CCc4ccc5nn(C)cc5c4)nn3)cn2)c1"
measure_unit = "fold"
reported_result = 1.5

[[record]]
compound_structure_string = "COc1ccc(OC)c(-c2ccc(-c3cn(CCc4ccc(-c5nccn5C)cc4)nn3)cn2)c1"
measure_unit = "fold"
reported_result = 2.7


====

- assay.comment: Mouse pharmacokinetics studies
- stated.conditions: female, CD-1, mouse, plasma, iv, 5 mg/kg
measure: AUC(0-t)

[[record]]
compound_structure_string = "COc1ccc(OC)c(-c2ccc(-c3cn(CCc4ccc(C(=O)N(C)C)cc4)nn3)cn2)c1"
measure = "AUC(0-t)"
reported_result = "13500 ng·h/mL"


====

- assayed.system: Pks13-TE (Mycobacterium tuberculosis, UniProt I6X8D2)
- Sequence (I6X8D2 1451-1733 limits assumed): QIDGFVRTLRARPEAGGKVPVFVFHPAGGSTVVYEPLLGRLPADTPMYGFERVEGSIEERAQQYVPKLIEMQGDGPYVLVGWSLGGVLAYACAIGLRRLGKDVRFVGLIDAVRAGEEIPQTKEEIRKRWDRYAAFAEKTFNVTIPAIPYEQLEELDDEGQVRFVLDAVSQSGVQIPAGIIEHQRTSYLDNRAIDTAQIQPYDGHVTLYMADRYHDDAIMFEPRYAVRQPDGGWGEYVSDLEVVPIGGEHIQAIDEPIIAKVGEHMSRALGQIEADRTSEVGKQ
- assay.comment: biochemical
- Assay type: binding
- stated.conditions: enzyme potency / IC50
measure: IC50 (nM)

[[record]]
compound_structure_string = "CCC(C)(C)c1ccc(S(=O)(=O)N[C@@H](Cc2ccccc2)[C@@H](O)Cc2nc(N(C)C)no2)cc1"
measure = "IC50"
reported_result = 470


====

- assayed.system: UniProt:I6X8D2
- assay.comment: biochemical
- Assay type: binding
- stated.conditions: read-out: IC50
pIC50: −log10 of the molar value.
measure: pIC50

[[record]]
compound_structure_string = "COc1ccc(OC)c(-c2ccc(-n3cc(C4CN(c5ccc(C(=O)N(C)C)cc5)C4)nn3)cn2)c1"
measure = "pIC50"
lt_gt_eq = "="
reported_result = 6.43

[[record]]
compound_structure_string = "Cc1cc(C(=O)NCc2ccccc2)nc(N2CCC(C(=O)N3CCN(C(=O)c4cc5c(Cl)cccn5n4)CC3)CC2)n1"
measure = "pIC50"
lt_gt_eq = "="
reported_result = 6.28

[[record]]
compound_structure_string = "COc1ccc(OC)c(-c2ccc(-c3cn(CCc4ccc(S(=O)(=O)N(C)C)cc4)nn3)cn2)c1"
measure = "pIC50"
lt_gt_eq = "="
reported_result = 6.28

[[record]]
compound_structure_string = "CNC(=O)c1cc(C)nc(N2CCC(C(=O)N3CCCN(C(=O)c4cnn5ccc(OC)cc45)CC3)CC2)n1"
measure = "pIC50"
lt_gt_eq = "<"
reported_result = 5.00

[[record]]
compound_structure_string = "COc1ccc(OC)c(-c2ccc(-c3cn(CCc4ccc5c(cnn5C)c4)nn3)cn2)c1"
measure = "pIC50"
lt_gt_eq = "="
reported_result = 6.31

[[record]]
compound_structure_string = "CN(C)C(=O)c1ccc(CCn2cc(-c3ccc(-c4ccccc4C(F)(F)F)nc3)nn2)cc1"
measure = "pIC50"
lt_gt_eq = "="
reported_result = 6.23

[[record]]
compound_structure_string = "COc1ccc(OC)c(-c2ccc(-c3cn(CCc4ccncc4)nn3)cn2)c1"
measure = "pIC50"
lt_gt_eq = "="
reported_result = 6.43

[[record]]
compound_structure_string = "COc1ccc(OC)c(-c2ccc(-c3cn(CCc4ccc5nn(C)cc5c4)nn3)cn2)c1"
measure = "pIC50"
lt_gt_eq = "="
reported_result = 6.26


====

IC50 values by entry
- assayed.system: Pks13-TE (Mycobacterium tuberculosis)
- assay.comment: biochemical
- Format: binding
- stated.conditions: IC50 (uM)
measure: IC50 (µM)

[[record]]
compound_structure_string = "COc1ccc(Cl)c(-c2ccc(-c3cn(CCc4ccc(C(=O)N(C)C)cc4)nn3)cn2)c1"
assayed_system = "Pks13-TE (Mycobacterium tuberculosis)"
measure_unit = "µM"
reported_result = 0.38

[[record]]
compound_structure_string = "Cc1cc(C(=O)NCc2ccncc2)nc(N2CCC(C(=O)N3CCN(C(=O)c4cnc5c(C)cccc5c4)CC3)CC2)n1"
assayed_system = "Pks13-TE (Mycobacterium tuberculosis)"
measure_unit = "µM"
reported_result = 0.42

[[record]]
compound_structure_string = "COc1ccn2nc(C(=O)N3CCN(C(=O)C4CCN(c5nc(C)cc(C(=O)NCc6ccccc6)n5)CC4)CC3)cc2c1"
assayed_system = "Pks13-TE (Mycobacterium tuberculosis)"
measure_unit = "µM"
reported_result = 0.48

[[record]]
compound_structure_string = "COc1ccc(Cl)cc1-c1ccc(-c2cn(CCc3ccc(C(=O)N(C)C)cc3)nn2)cn1"
assayed_system = "Pks13-TE (Mycobacterium tuberculosis)"
measure_unit = "µM"
reported_result = 0.46


Just for reference, paper PMC11091879 is where these values come from.
